Let's look at some compounds and their measured KA.
Test: Dissociation constant of compound was determined at muscarinic receptor in the rat cerebral cortex
Format: tissue-based
propertyLabel: KA (µM)

INSERT INTO measurements (compound, propertylabel, measuredvalue) VALUES
  ('CN(CC#CCN1CCCC1=O)CCBr', 'KA', 0.35),
  ('CC1CCC(=O)N1CC#CCN(C)CCBr (centres undefined)', 'KA', 0.035),
  ('CN(CC#CCN1CCCC1=O)CCCl', 'KA', 0.79),
  ('CC1CCC(=O)N1CC#CCN(C)CCCl (centres undefined)', 'KA', 0.058);

====

Test: Acute toxicity of compound when injected intravenously in mice
Type: organism-based
Details: mouse, in vivo, iv
Let's look at some compounds and their measured LD50.
propertyLabel: LD50 (µmol/kg)

INSERT INTO measurements (compound, measuredvalue) VALUES
  ('CC1CCC(=O)N1CC#CCN(C)CCBr (configuration not stated)', 81),
  ('CC1CCC(=O)N1CC#CCN(C)CCCl (configuration not stated)', 396);

====

Organism: Rattus norvegicus
Test: Rate constants of compound was determined at muscarinic receptor in the rat cerebral cortex
Format: ADME
propertyLabel: K3 (min⁻¹)

INSERT INTO results (compound, measuredvalue) VALUES
  ('CC1CCC(=O)N1CC#CCN(C)CCBr (centres undefined)', 0.096),
  ('CN(CC#CCN1CCCC1=O)CCBr', 0.062),
  ('CC1CCC(=O)N1CC#CCN(C)CCCl (centres undefined)', 0.091),
  ('CN(CC#CCN1CCCC1=O)CCCl', 0.064);

====

Test: First order rate constant of compound was determined in 50 mM phosphate buffer (pH 7.4) at 37 degree celsius
Format: ADME
Let's look at some compounds and their measured K1.
propertyLabel: K1 (min⁻¹)

INSERT INTO measurements (compound, propertylabel, measuredvalue) VALUES
  ('CN(CC#CCN1CCCC1=O)CCBr', 'K1', 0.85),
  ('CN(CC#CCN1CCCC1=O)CCCl', 'K1', 0.019),
  ('CC1CCC(=O)N1CC#CCN(C)CCBr (centres undefined)', 'K1', 0.89),
  ('CC1CCC(=O)N1CC#CCN(C)CCCl (centres undefined)', 'K1', 0.025);

====

Assay: Half life of compound was determined in 50 mM phosphate buffer (pH 7.4) at 37 degree celsius
Format: ADME
Details: phosphate buffer
propertyLabel: half-life (min)

INSERT INTO measurements (compound, propertylabel, displayunit, measuredvalue) VALUES
  ('CC1CCC(=O)N1CC#CCN(C)CCCl (stereo unspecified)', 'half-life', 'min', 27.7);

====

Assay: Rate constant for decay of compound was determined in 50 mM phosphate buffer (pH 7.4) at 37 degree celsius
Format: ADME
Let's look at some molecules and their measured K2.
propertyLabel: K2 (min⁻¹)

INSERT INTO results (molecule, measuredvalue) VALUES
  ('CC1CCC(=O)N1CC#CCN(C)CCCl (centres undefined)', 0.045),
  ('CC1CCC(=O)N1CC#CCN(C)CCBr (centres undefined)', 0.06),
  ('CN(CC#CCN1CCCC1=O)CCCl', 0.033),
  ('CN(CC#CCN1CCCC1=O)CCBr', 0.04);
